Hey, just so you know, these numbers are from ChEMBL document CHEMBL5303573.

Settings: parabacteroides johnsonii, 12 h, 2 µM
Description: The drug is tested on Parabacteroides johnsonii strain: DSM18315 for biotransformation. The drug concentrations were measured before and after a 12-h incubation by liquid-chromatography-coupled mass spectrometry (LC–MS)
measure name: Bacterial Biotransformation

// solved cases for Bacterial Biotransformation follow
compound="CC(NC(C)(C)C)C(=O)c1cccc(Cl)c1 (stereo not drawn)" measure_name="Bacterial Biotransformation" result_value="Compound NOT metabolized"
compound=CN1CCc2cccc3c2[C@H]1Cc1ccc(O)c(O)c1-3 measure_name="Bacterial Biotransformation" result_value="Compound NOT metabolized"
compound=C[C@]12CCC(=O)C=C1[C@@H]1C[C@@H]1[C@H]1[C@@H]3[C@@H]4C[C@@H]4[C@@]4(CCC(=O)O4)[C@@]3(C)CC[C@@H]12 measure_name="Bacterial Biotransformation" result_value="Compound metabolized"
compound=CN1CCc2c(c3ccccc3n2Cc2ccccc2)C1.CN1CCc2c(c3ccccc3n2Cc2ccccc2)C1.O=S(=O)(O)c1cccc2c(S(=O)(=O)O)cccc12 measure_name="Bacterial Biotransformation" result_value="Compound NOT metabolized"
compound="COc1ccc(CN2CCNCC2)c(OC)c1OC.Cl.Cl [TRIMETAZIDINE DIHYDROCHLORIDE]" measure_name="Bacterial Biotransformation" result_value="Compound metabolized"

Go through the items and report each one's Bacterial Biotransformation.
1. CCN(C)C(=O)Oc1cccc([C@H](C)N(C)C)c1.O=C(O)C(O)C(O)C(=O)O [RIVASTIGMINE TARTRATE]
2. C[C@]12C=CC(=O)C=C1CC[C@@H]1[C@@H]2C(=O)C[C@@]2(C)[C@H]1CC[C@]2(O)C(=O)CO
3. CC[C@@H](CO)NC(=O)[C@@H]1C=C2c3cccc4c3c(cn4C)C[C@H]2N(C)C1.O=C(O)/C=C\C(=O)O [METHYSERGIDE MALEATE]

-- reply
["Compound NOT metabolized", "Compound NOT metabolized", "Compound metabolized"]

----------
Settings: parabacteroides johnsonii, 12 h, 2 µM
measure name: Bacterial Biotransformation

molecule="COc1c2occc2cc2ccc(=O)oc12 [METHOXSALEN]" measure_name="Bacterial Biotransformation" result_value="Compound metabolized"
molecule="CC(C)(C(=O)O)c1ccc(C(O)CCCN2CCC(C(O)(c3ccccc3)c3ccccc3)CC2)cc1 (stereo unspecified) [FEXOFENADINE]" measure_name="Bacterial Biotransformation" result_value="Compound NOT metabolized"
molecule="c1ccc2[nH]c(-c3cscn3)nc2c1 [THIABENDAZOLE]" measure_name="Bacterial Biotransformation" result_value="Compound NOT metabolized"
molecule="COc1cc(C(=O)NCc2ccc(OCCN(C)C)cc2)cc(OC)c1OC [TRIMETHOBENZAMIDE]" measure_name="Bacterial Biotransformation" result_value="Compound NOT metabolized"
molecule="Cc1ccnc2c1NC(=O)c1cccnc1N2C1CC1 [NEVIRAPINE]" measure_name="Bacterial Biotransformation" result_value="Compound NOT metabolized"

Go through the items and report each one's Bacterial Biotransformation.
1. CC(C)NCC(O)COc1ccc(CC(N)=O)cc1 (stereo unspecified) [ATENOLOL]
2. COC1=C(OC)C(=O)C(CCCCCCCCCCO)=C(C)C1=O [IDEBENONE]
3. CC(=O)OCC(=O)[C@@]1(OC(C)=O)[C@@H](C)C[C@H]2[C@@H]3C[C@H](F)C4=CC(=O)C=C[C@]4(C)[C@@]3(F)[C@@H](O)C[C@@]21C [DIFLORASONE DIACETATE]
4. C[C@H]1O[C@@H](O[C@H]2[C@@H](O)C[C@H](O[C@H]3[C@@H](O)C[C@H](O[C@H]4CC[C@@]5(C)[C@H](CC[C@@H]6[C@@H]5C[C@@H](O)[C@]5(C)[C@@H](C7=CC(=O)OC7)CC[C@]65O)C4)O[C@@H]3C)O[C@@H]2C)C[C@H](O)[C@@H]1O [DIGOXIN]
5. CCC(C)n1ncn(-c2ccc(N3CCN(c4ccc(OCC5COC(Cn6cncn6)(c6ccc(Cl)cc6Cl)O5)cc4)CC3)cc2)c1=O (stereo unspecified) [ITRACONAZOLE]
6. CC(=O)OCC(=O)[C@@]1(O)[C@@H](C)C[C@H]2[C@@H]3CCC4=CC(=O)C=C[C@]4(C)[C@@]3(F)[C@@H](O)C[C@@]21C [BETAMETHASONE ACETATE]
7. CN(C(=O)CN(CCO)CC(=O)N(C)C(C)(C)Cc1ccccc1)C(C)(C)Cc1ccccc1 [OXETHAZAINE]
8. CCCCC(=O)O[C@]1(C(=O)CO)[C@@H](C)C[C@H]2[C@@H]3CCC4=CC(=O)C=C[C@]4(C)[C@@]3(F)[C@@H](O)C[C@@]21C [BETAMETHASONE VALERATE]

-- reply
1. Compound NOT metabolized
2. Compound NOT metabolized
3. Compound metabolized
4. Compound metabolized
5. Compound NOT metabolized
6. Compound metabolized
7. Compound NOT metabolized
8. Compound metabolized

Go through the items and report each one's Bacterial Biotransformation.
1. C#C[C@]1(OC(C)=O)CC[C@H]2[C@@H]3CCC4=CC(=O)CC[C@@H]4[C@H]3CC[C@@]21C [NORETHINDRONE ACETATE]
2. CNS(=O)(=O)Cc1ccc2[nH]cc(CCN(C)C)c2c1.O=C(O)CCC(=O)O [SUMATRIPTAN SUCCINATE]
3. C[C@@H](c1ncncc1F)[C@](O)(Cn1cncn1)c1ccc(F)cc1F [VORICONAZOLE]

-- reply
Compound metabolized
Compound NOT metabolized
Compound NOT metabolized

----------
Assay: The drug is tested on Bacteroides fragilis strain: HMW615 for biotransformation. The drug concentrations were measured before and after a 12-h incubation by liquid-chromatography-coupled mass spectrometry (LC–MS)
Settings: 2 µM
measure name: Bacterial Biotransformation

molecule="CN(C)CCc1c[nH]c2ccc(Cn3cncn3)cc12.O=C(O)c1ccccc1 [RIZATRIPTAN BENZOATE]" measure_name="Bacterial Biotransformation" result_value="Compound NOT metabolized"
molecule="COC(=O)C1=C(C)NC(C)=C(C(=O)OC(C)C)C1c1cccc2nonc12 (stereo not drawn) [ISRADIPINE]" measure_name="Bacterial Biotransformation" result_value="Compound NOT metabolized"

----------
Conditions: bacteroides fragilis, 12 h, 2 µM
Description: The drug is tested on Bacteroides fragilis strain: NCTC 9343 for biotransformation. The drug concentrations were measured before and after a 12-h incubation by liquid-chromatography-coupled mass spectrometry (LC–MS)
measure name: Bacterial Biotransformation

molecule="CCCCCCOC(=O)/N=C(/N)c1ccc(NCc2nc3cc(C(=O)N(CCC(=O)OCC)c4ccccn4)ccc3n2C)cc1.CS(=O)(=O)O [DABIGATRAN ETEXILATE MESYLATE]" result_value="Compound NOT metabolized"
molecule=Cc1ccc(/C(=C\CN2CCCC2)c2ccccn2)cc1 result_value="Compound NOT metabolized"

----------
Test: The drug is tested on Anaerotruncus colihominis strain: DSM17241 for biotransformation. The drug concentrations were measured before and after a 12-h incubation by liquid-chromatography-coupled mass spectrometry (LC–MS)
Conditions: 2 µM
measure name: Bacterial Biotransformation

// solved cases for Bacterial Biotransformation follow
compound="CCOc1ccc2nc(S(N)(=O)=O)sc2c1 [ETHOXZOLAMIDE]" measure_name="Bacterial Biotransformation" result_value="Compound metabolized"
compound="CC(C)(C)NCC(O)c1cc(Cl)c(N)c(Cl)c1 (stereo not given)" measure_name="Bacterial Biotransformation" result_value="Compound NOT metabolized"
compound=CC(=O)O[C@H]1C(=O)[C@@]2(C)[C@H]([C@H](OC(=O)c3ccccc3)[C@]3(O)C[C@H](OC(=O)[C@H](O)[C@@H](NC(=O)c4ccccc4)c4ccccc4)C(C)=C1C3(C)C)[C@]1(OC(C)=O)CO[C@@H]1C[C@@H]2O measure_name="Bacterial Biotransformation" result_value="Compound NOT metabolized"
compound="O=C1N=C([O-])NC1(c1ccccc1)c1ccccc1.[Na+] [PHENYTOIN SODIUM]" measure_name="Bacterial Biotransformation" result_value="Compound NOT metabolized"
compound=CNC(=C[N+](=O)[O-])NCCSCc1ccc(CN(C)C)o1 measure_name="Bacterial Biotransformation" result_value="Compound metabolized"
compound=CN(C/C=C/C#CC(C)(C)C)Cc1cccc2ccccc12 measure_name="Bacterial Biotransformation" result_value="Compound NOT metabolized"

Go through the items and report each one's Bacterial Biotransformation.
1. CN1CCN(C2=Nc3ccccc3Oc3ccc(Cl)cc32)CC1.O=C(O)CCC(=O)O [LOXAPINE SUCCINATE]
2. CCC1(c2ccc(N)cc2)CCC(=O)NC1=O (stereo not given) [AMINOGLUTETHIMIDE]
3. CCCCCOC(=O)Nc1nc(=O)n([C@@H]2O[C@H](C)[C@@H](O)[C@H]2O)cc1F
4. CN1CCC(=C2c3ccccc3CC(=O)c3sccc32)CC1.O=C(O)/C=C/C(=O)O [KETOTIFEN FUMARATE]
5. COCCc1ccc(OCC(O)CNC(C)C)cc1.COCCc1ccc(OCC(O)CNC(C)C)cc1.O=C(O)C(O)C(O)C(=O)O (stereo not given) [METOPROLOL TARTRATE]
6. CC(=O)CCCCn1c(=O)c2c(ncn2C)n(C)c1=O
7. CC#CCn1c(N2CCC[C@@H](N)C2)nc2c1c(=O)n(Cc1nc(C)c3ccccc3n1)c(=O)n2C
8. NC(=O)N1c2ccccc2CC(=O)c2ccccc21 [OXCARBAZEPINE]

-- reply
["Compound NOT metabolized", "Compound NOT metabolized", "Compound NOT metabolized", "Compound NOT metabolized", "Compound NOT metabolized", "Compound NOT metabolized", "Compound NOT metabolized", "Compound NOT metabolized"]

Go through the items and report each one's Bacterial Biotransformation.
1. CCCCC(=O)N(Cc1ccc(-c2ccccc2-c2nnn[nH]2)cc1)[C@H](C(=O)O)C(C)C
2. Nc1nc(N)nc(-c2cc(Cl)ccc2Cl)n1.O=C(O)/C=C\C(=O)O [IRSOGLADINE MALEATE]

-- reply
1: Compound NOT metabolized; 2: Compound NOT metabolized
